These data points were gathered from PubChem BioAssay AID1845197.

What viability, T/C was measured for each of the following?
test system: 349418-098-R tumor spheroid viability; assay: Anticancer human tumor 349418-098-R patient-derived lung adenocarcinoma cell line growth inhibition; conditions: second compound 100 µM; first compound 0.316 µM; hits give low values; spheroids with HUVEC and MSC;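 note: spheroids exposed to compound for 7 days before measurement; percent of vehicle control viability with 100% = DMSO-treated spheroids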
Use % as the unit, but write only the number.

// query Look up viability, T/C for this compound: CC1COCCN1c1cc(-c2ccnn2C)c2ccnc(-c3ccn[nH]3)c2n1 (stereo unspecified) + Cn1nnc2c(C(N)=O)ncn2c1=O
// result 9.79

// query Look up viability, T/C for this compound: COc1ccc([C@@H](O)c2cc(-c3ncnc4cc(N5CCOCC5)ccc34)c(F)cc2Cl)nn1 + Cn1nnc2c(C(N)=O)ncn2c1=O
// result 107

// query Look up viability, T/C for this compound: CC(C)n1c(=O)n(C)c2cnc3cc(F)c(-c4ccc(OCCCN5CCCCC5)nc4)cc3c21 + Cn1nnc2c(C(N)=O)ncn2c1=O
// result 105

// query Look up viability, T/C for this compound: COc1cc(C)[nH]c(=O)c1CN1CCc2c(Cl)cc(C(OC)C3COC3)c(Cl)c2C1=O (stereo unspecified) + Cn1nnc2c(C(N)=O)ncn2c1=O
// result 96.3

// query Look up viability, T/C for this compound: Cc1cc(C)c(CNC(=O)c2cc(-c3ccc(CN4CCOCC4)cc3)cc3c2cnn3C2CCCC2)c(=O)[nH]1 + Cn1nnc2c(C(N)=O)ncn2c1=O
// result 103

// query Look up viability, T/C for this compound: [2H]c1nc(C)nc([2H])c1-c1cc(NC[C@@H](C)c2cccc3c(C(=O)NC)ccnc23)ncn1 + Cn1nnc2c(C(N)=O)ncn2c1=O
// result 106
